Tested on: HEK-293T
Test: Multiplex assay against HEK293T
Type: toxicity, cell-based
Details: human, 24 h, 1 µM, compound concentration 1 uM, replicate 2
MEASURED_QUANTITY: Population Membrane Permeable-Phenotype (%)
Hi! Could you send only the number? It should be in %, unit omitted.

### Prompt For the compound C=CC(=O)Nc1ccc2[nH]c(=O)n(C3CCN(Cc4ccc(-c5nc6cc[nH]c(=O)c6cc5-c5ccccc5)cc4)CC3)c2c1 , what Population Membrane Permeable-Phenotype (%) is on record?
### Response 9

### Prompt For the compound COc1ccc(-c2ccc3ncc4c(c3c2)n(-c2ccc(N3CCNCC3)c(C(F)(F)F)c2)c(=O)n4C)cn1.O=C(O)/C=C\C(=O)O , what Population Membrane Permeable-Phenotype (%) is on record?
### Response 7

### Prompt For the compound CCC1=C[C@@H]2C[N@](C1)Cc1c([nH]c3ccccc13)[C@@](C(=O)OC)(c1cc3c(cc1OC)N(C)[C@H]1[C@@](O)(C(=O)OC)[C@H](OC(C)=O)[C@]4(CC)C=CCN5CC[C@]31[C@@H]54)C2.O=C(O)C(O)C(O)C(=O)O.O=C(O)C(O)C(O)C(=O)O [VINORELBINE TARTRATE] , what Population Membrane Permeable-Phenotype (%) is on record?
### Response 8

### Prompt For the compound O=c1[nH]c2ccccc2n1C1CCN(Cc2ccc(-c3[nH]c4cc5ncnc5cc4nc3-c3ccccc3)cc2)CC1 , what Population Membrane Permeable-Phenotype (%) is on record?
### Response 14

### Prompt For the compound Cc1c[nH]c2nccc(Oc3c(F)cc(Nc4cc(Cl)nc(N)n4)cc3F)c12 , what Population Membrane Permeable-Phenotype (%) is on record?
### Response 8

### Prompt For the compound COc1cc(Nc2nccc(-c3cnn4nc(OC)ccc34)n2)cc(C(F)(F)F)c1 , what Population Membrane Permeable-Phenotype (%) is on record?
### Response 9

### Prompt For the compound CN1CCN(Cc2ccc(Nc3ncc(Cl)c(Nc4ccccc4S(=O)(=O)N(C)C)n3)cc2)CC1 , what Population Membrane Permeable-Phenotype (%) is on record?
### Response 16

====

System: U2OS
Experiment: Multiplex assay against U2OS
Assay type: toxicity, cell-based
Details: human, 24 h, 1 µM, compound concentration 1 uM, replicate 1
Decide using Population Pyknosed Nuclei (%): a value greater than or equal to 6% is Satisfied, a smaller one is Not satisfied.

### Prompt // inclusive: Population Pyknosed Nuclei (%) at least 6%? input: O=c1cc(N2CCOCC2)oc2c(-c3cccc4c3sc3ccccc34)cccc12
### Response Satisfied

### Prompt // inclusive: Population Pyknosed Nuclei (%) at least 6%? input: CCOC(=O)Nc1cc(-c2ccc(C)c(NS(C)(=O)=O)c2)nn2c(C)nnc12
### Response Not satisfied

### Prompt // inclusive: Population Pyknosed Nuclei (%) at least 6%? input: CC(C)Oc1ccccc1C(=O)Nc1ccccc1C(=O)Nc1cccc(S(=O)(=O)C(F)(F)F)c1
### Response Satisfied

### Prompt // inclusive: Population Pyknosed Nuclei (%) at least 6%? input: C=CC(=O)Nc1cccc(Oc2nc(Nc3ccc(N4CCN(C)CC4)cc3OC)ncc2Cl)c1
### Response Satisfied

### Prompt // inclusive: Population Pyknosed Nuclei (%) at least 6%? input: COc1ccc(-c2ccc3ncc4c(c3c2)n(-c2ccc(N3CCNCC3)c(C(F)(F)F)c2)c(=O)n4C)cn1.O=C(O)/C=C\C(=O)O
### Response Satisfied

### Prompt // inclusive: Population Pyknosed Nuclei (%) at least 6%? input: CNC(=O)Nc1ccc(-c2nc(N3CC4CCC(C3)O4)c3cnn(C4CCC5(CC4)OCCO5)c3n2)cc1
### Response Satisfied

### Prompt // inclusive: Population Pyknosed Nuclei (%) at least 6%? input: Cc1ccc2c(c1)c1c(n2CCc2ccc(C)nc2)CCN(C)C1 [LATREPIRDINE]
### Response Satisfied

### Prompt // inclusive: Population Pyknosed Nuclei (%) at least 6%? input: CC(C)c1noc(N2CCC(COc3ccc(-c4ccc(S(C)(=O)=O)cc4)nc3)CC2)n1
### Response Satisfied

### Prompt // inclusive: Population Pyknosed Nuclei (%) at least 6%? input: Cc1c[nH]c2nccc(Oc3c(F)cc(Nc4cc(Cl)nc(N)n4)cc3F)c12
### Response Satisfied

### Prompt // inclusive: Population Pyknosed Nuclei (%) at least 6%? input: CCc1nn(CCCN2CCN(c3cccc(Cl)c3)CC2)c(=O)n1CCOc1ccccc1.Cl [NEFAZODONE HYDROCHLORIDE]
### Response Satisfied

### Prompt // inclusive: Population Pyknosed Nuclei (%) at least 6%? input: C[C@]12CC[C@@H]3c4ccc(O)cc4CC[C@H]3[C@@H]1CC[C@@H]2O
### Response Not satisfied

### Prompt // inclusive: Population Pyknosed Nuclei (%) at least 6%? input: COc1cc2ncn(-c3cc(OCc4ccccc4C(F)(F)F)c(C(N)=O)s3)c2cc1OC [GW843682X]
### Response Satisfied

### Prompt // inclusive: Population Pyknosed Nuclei (%) at least 6%? input: C=CC(=O)Nc1ccc2[nH]c(=O)n(C3CCN(Cc4ccc(-c5nc6cc[nH]c(=O)c6cc5-c5ccccc5)cc4)CC3)c2c1
### Response Not satisfied

### Prompt // inclusive: Population Pyknosed Nuclei (%) at least 6%? input: CCc1ccc(OCc2ccccc2C(=O)Nc2ccc3nc(C)cc(N)c3c2)cc1.Cl
### Response Satisfied

====

Test system: HEK-293T
Test: Multiplex assay against HEK293T
Format: toxicity, cell-based
Details: human, 48 h, 10 µM, compound concentration 10 uM, replicate 2
// boundary case: Population Apoptotic (%) equal to 60% maps to 0; strictly smaller maps to 1

### Prompt is_below(Population Apoptotic (%), 60%) for CN1CCN(Cc2ccc(Nc3ncc(Cl)c(Nc4ccccc4S(=O)(=O)N(C)C)n3)cc2)CC1 ?
### Response 1

### Prompt is_below(Population Apoptotic (%), 60%) for CC(C)Oc1ccccc1C(=O)Nc1ccccc1C(=O)Nc1cccc(S(=O)(=O)C(F)(F)F)c1 ?
### Response 1

### Prompt is_below(Population Apoptotic (%), 60%) for CNC(=O)Nc1ccc(-c2nc(N3CC4CCC(C3)O4)c3cnn(C4CCC5(CC4)OCCO5)c3n2)cc1 ?
### Response 0

### Prompt is_below(Population Apoptotic (%), 60%) for CCOC(=O)Nc1cc(-c2ccc(C)c(NS(C)(=O)=O)c2)nn2c(C)nnc12 ?
### Response 1

### Prompt is_below(Population Apoptotic (%), 60%) for COc1ccc(-c2ccc3ncc4c(c3c2)n(-c2ccc(N3CCNCC3)c(C(F)(F)F)c2)c(=O)n4C)cn1.O=C(O)/C=C\C(=O)O ?
### Response 0

### Prompt is_below(Population Apoptotic (%), 60%) for CCc1ccc(OCc2ccccc2C(=O)Nc2ccc3nc(C)cc(N)c3c2)cc1.Cl ?
### Response 1

### Prompt is_below(Population Apoptotic (%), 60%) for O=C(c1cc2c(cc1F)OC(c1ccc(F)cc1)(c1ccc(Cl)cc1Cl)O2)N1CCOCC1 (configuration not stated) ?
### Response 1

### Prompt is_below(Population Apoptotic (%), 60%) for COc1cc(Nc2nccc(-c3cnn4nc(OC)ccc34)n2)cc(C(F)(F)F)c1 ?
### Response 1

### Prompt is_below(Population Apoptotic (%), 60%) for CC(C)OC(=O)N1CCC(Oc2ncnc3c2cnn3-c2ccc(S(C)(=O)=O)cc2F)CC1 ?
### Response 1

### Prompt is_below(Population Apoptotic (%), 60%) for CCc1nn(CCCN2CCN(c3cccc(Cl)c3)CC2)c(=O)n1CCOc1ccccc1.Cl [NEFAZODONE HYDROCHLORIDE] ?
### Response 0

### Prompt is_below(Population Apoptotic (%), 60%) for CC1=C(C(=O)Nc2cc3cn[nH]c3cc2F)C(c2ccc(C(F)(F)F)cc2)CC(=O)N1 (configuration not stated) ?
### Response 0

### Prompt is_below(Population Apoptotic (%), 60%) for CCCSc1nc(N[C@@H]2C[C@H]2c2ccc(F)c(F)c2)c2nnn([C@@H]3C[C@H](OCCO)[C@@H](O)[C@H]3O)c2n1 ?
### Response 0

### Prompt is_below(Population Apoptotic (%), 60%) for Cc1ccc2c(c1)c1c(n2CCc2ccc(C)nc2)CCN(C)C1 [LATREPIRDINE] ?
### Response 0

### Prompt is_below(Population Apoptotic (%), 60%) for C[C@]12CC[C@@H]3c4ccc(O)cc4CC[C@H]3[C@@H]1CC[C@@H]2O ?
### Response 1

### Prompt is_below(Population Apoptotic (%), 60%) for Cc1cccc(CN2CCN(C(c3ccccc3)c3ccc(Cl)cc3)CC2)c1.Cl.Cl (configuration not stated) ?
### Response 1

Each recorded value in this set is attributed to ChEMBL document CHEMBL4689842.
